Target: T1, Drp53 (Danio rerio, UniProt P79734 1-373)
T1 sequence: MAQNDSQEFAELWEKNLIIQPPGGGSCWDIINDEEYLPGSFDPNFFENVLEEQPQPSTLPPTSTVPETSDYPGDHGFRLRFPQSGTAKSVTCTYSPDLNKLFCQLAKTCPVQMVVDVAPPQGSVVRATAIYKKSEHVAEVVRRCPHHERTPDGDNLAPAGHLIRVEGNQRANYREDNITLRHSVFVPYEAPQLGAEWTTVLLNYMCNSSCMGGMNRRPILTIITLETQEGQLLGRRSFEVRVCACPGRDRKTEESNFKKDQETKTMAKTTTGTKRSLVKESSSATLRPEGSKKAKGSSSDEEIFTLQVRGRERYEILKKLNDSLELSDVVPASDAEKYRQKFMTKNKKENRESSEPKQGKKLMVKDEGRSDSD
Test: fluorescence anisotropy direct titration; 25 mM sodium phosphate (purification buffer pH 7.2), 225 mM NaCl, 10% v/v glycerol, 5 mM DTT, 0.2 mg/mL BSA, 22 C
Conditions: protein: recombinant; tags: N-terminal 6xHis-lipoyl-TEV tag, cleaved; chain copies: 4; label: 5'-Alexa488
pKd: −log10 of the molar value.

[
  {
    "binder": "Ref_Alexa488 (dsDNA) DNA 1: GGACATGTCCGGACATGTCC DNA 2: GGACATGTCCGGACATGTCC",
    "pKd": 7.20
  }
]
